These measurements were taken from PubChem BioAssay AID488890.

test: growth inhibition of non-replicating M. tuberculosis (AID 488890); settings: Mycobacterium tuberculosis non-replicating, at 25 µM, stronger effect = higher value;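 further: plate controls were DMSO cells for no effect and high antibiotic wells for full effect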
Screen size: about 320,000 compounds; about 1,300 (0.41%) were called active. About 3% were inconclusive and are not listed. The list is a sample of the results. Entries with a potency or affinity are not part of this list.
Consider the following molecules and their measured inhibition readings.

smiles_input | inhibition (%)
COc1cc(C(=O)N/N=C(\c2ccccc2)c2ccccn2)cc(OC)c1OC | 43.4
C/C(=N\NC(=O)c1cccc(Br)c1)c1ccc(Br)cc1 | 5.12
CCOC(=O)c1sc2nc3n(c(=O)c2c1C)CCC3 | 1.86
COCCNC(=O)CS(=O)(=O)Cc1nc(-c2ccc(C)cc2)oc1C | -26
C/C(=N/NC(=O)c1ccccn1)c1ccc(O)cc1 | 65.9
CC(C)CN(C(=O)COC(=O)c1cccn1C)c1c(N)n(Cc2ccccc2)c(=O)[nH]c1=O | 16.9
C/C(=N\NC(=O)c1ccccn1)c1ccc(Cl)cc1 | 65.9
C/C(=N/NC(=O)c1ccncc1)c1c[nH]c2ccccc12 | 52.8
C/C(=N/NC(=O)c1ccccn1)c1c[nH]c2ccccc12 | 53
O=C(NCc1ccccn1)c1ccccc1OCc1ccc(F)cc1 | -9.24
C/C(=N/NC(=O)CNC(=O)c1ccccn1)c1cccc([N+](=O)[O-])c1 | -4.01

====

assay: growth inhibition of non-replicating M. tuberculosis (AID 488890); conditions: Mycobacterium tuberculosis non-replicating, at 25 µM, stronger effect = higher value;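 further: plate controls were DMSO cells for no effect and high antibiotic wells for full effect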
Screen size: about 320,000 compounds; about 1,300 (0.41%) were called active. About 3% were inconclusive and are not listed. These entries were drawn from the full list. Entries with a potency or affinity are not part of this list.

compound | readout_unit | inhibition
COc1ccc([N+](=O)[O-])cc1NC(=O)c1cn(-c2ccc(Cl)cc2)c(=O)c2ccccc12 | % | -16.7
O=C(CCC(=O)N1CCOCC1)NCCc1ccc(F)cc1 | % | 5.21
COc1ccc(-n2nc(C(=O)NCC(=O)O)c3ccccc3c2=O)cc1 | % | -2.99
O=C(Nc1ccccc1N1CCOCC1)C1=NN(c2c(F)c(F)cc(F)c2F)C(=O)CC1 | % | -3.73
Cc1cc2oc(=O)cc(CN(C)Cc3cccc(F)c3)c2cc1C | % | 12.8
O=C(CCNC(=O)C1CCN(S(=O)(=O)c2ccccc2)CC1)NCCc1ccc(Cl)cc1 | % | 1.82
CCC1(CC)C(=O)NN(c2ccccc2)C1=O | % | -21.9
Cc1ccnc(NC(=O)c2ccccc2NC(=O)c2ccccc2)c1 | % | 7.95
COc1ccc(C(=O)N2CCN(C)C(=O)[C@@H]2C)cc1OC1CCN(C(C)C)CC1 | % | -16.1
CCNc1nc2ccccc2[nH]1 | % | 11.9
C=CCn1c(SCC(=O)Nc2cc(C)cc(C)c2)nnc1-c1cnccn1 | % | -3.18
COc1ccc(C(=O)C2CCCN(C(=O)c3cccc(Cl)c3F)C2)cc1OC (stereo not drawn) | % | 8.33
COc1ccc(Oc2c(O)c3ccccc3n(C)c2=O)cc1 | % | 9.82
Cc1ccc2nc(-c3ccccc3)oc(=O)c2c1 | % | 76.6
O=C(NCCO)c1ccc2c(c1)S(=O)(=O)c1ccccc1C2=O | % | -6.47
CC(/C=C/c1ccc2c(c1)OCO2)=N\NC(=O)c1cccc([N+](=O)[O-])c1 | % | 68.6
COc1ccc(-c2csc3nc(-c4ccc(C)cc4)oc(=O)c23)cc1OC | % | 2
CS(=O)(=O)N1CCC(C(=O)NCc2ccc(Cl)cc2)CC1 | % | 8.1
O=C(/C=C/c1cc([N+](=O)[O-])ccc1OC(F)F)Nc1cccc(OC(F)F)c1 | % | 0.25
O=C(c1ccc(F)cc1)C(Cc1ccccc1)N1CCCCC1 (stereo not drawn) | % | 63.6
O=C(Nc1ccc(Cl)c(Cl)c1)Nc1ccc(Br)cc1F | % | 75.2
COCc1cc(C)nc2sc(C(=O)N3CCCC3)c(N)c12 | % | 3.21
CCOc1ccc2nc(SCC(=O)N3CCN(C(=O)c4ccco4)CC3)sc2c1 | % | 28.7
